// provenance: patent US20120231006A1

molecular target: T1, mOrai1-hOrai1 ECL2 (SPTKPPAE) protein (human/mouse chimera, UniProt Q8BWG9 1-304 (mouse entry)); experiment: FACS, 293EBNA; parameters: concentration or dose not given beside the values
T1 construct: also called Ch
T1 sequence (Q8BWG9 other isoform, or with tags, fused parts or gaps): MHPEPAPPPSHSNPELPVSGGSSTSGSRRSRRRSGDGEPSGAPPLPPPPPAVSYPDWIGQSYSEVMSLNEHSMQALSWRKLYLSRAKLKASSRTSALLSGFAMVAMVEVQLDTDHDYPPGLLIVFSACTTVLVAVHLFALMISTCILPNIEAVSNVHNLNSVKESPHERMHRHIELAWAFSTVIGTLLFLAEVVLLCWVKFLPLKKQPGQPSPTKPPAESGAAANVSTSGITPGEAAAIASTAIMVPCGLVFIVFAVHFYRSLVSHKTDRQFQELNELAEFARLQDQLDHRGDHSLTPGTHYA
Some binders, each annotated with its measured POC (percent of control, FACS Geo Mean relative to binding to Ch. 1).
endpoint-name: POC (percent of control, FACS Geo Mean relative to binding to Ch. 1)

[[record]]
binder = "mAb 5B1.1 (antibody, human IgG2, lambda, V domains shown, fully human IgG2 lambda, Campaign 2; also called mAb 5Bl1.1) VH: QVQLVQSGAEVKKPGASVKVSCKASGYTFTDYYINWVRQAPGQGLEWMGWINPNSGGSSYAQKFQGRVTMTRDTSISTAHMELIRLRSDDTAVYYCARERGGIEDWFDPWGQGTLVTVSS VL: QSVLTQPPSVSGAPGQRVTISCTGSSSNIGAGYDVHWYQQLPGTAPKLLIYGNSNRPSGVPDRFSGSKSGTSASLAITKFQAEDEAVYYCQSYGSGLSGVVFGGGTKLTVLG"
result = "< 1%"

[[record]]
binder = "mAb 5C1.1 (antibody, human IgG2, lambda, V domains shown, fully human IgG2 lambda, Campaign 2) VH: QVQLVQSGAEVKKPGASVKVSCKASGYTFTDYYMNWVRQAPGQGLEWMGWINPNSGGTKYAQKFQGRVTMTRDTSIRTAYMELSRLRSDDTAVYYCAREYGGNSDWFDPWGQGTLVTVSS VL: QSVLTQPPSVSGAPGQRVTISCTGSSSNIGAGYDVHWYQQLPGTAPKLLIYGNSNRPSGVPDRFSGSKSGTSASLAITGLQAEDEADYYCQSYDNRLSDSVVIGGGTKLAVQG"
result = "< 1%"

[[record]]
binder = "mAb 5A4.2 (antibody, human IgG2, lambda, V domains shown, fully human IgG2 lambda, Campaign 2) VH: QVQLVQSGAEVKKPGASVKVSCKASGYTFTDYYMNWVRQAPGQGLEWMGWINPNSGGTKYAQKFQGRVTMTRDTSIRTAYMELSRLRSDDTAVYYCSREYGGNSDWFDPWGQGTLVTVSS VL: QSVLTQPPSVSGAPGQRVTISCTGSSSNIGAGYDVHWYQQLPGTAPKLLIYGNSNRPSGVPDRFSGSKSGTSASLAITGLQAEDEADYYCQSYDNRLSDSVVIGGGTKLTVQG"
result = "< 1%"

